Origin of measurements: the supplement of paper PMC10307832

System: NCI-H3122
Assay: relative viability (nuclei count vs DMSO), 5 days (fraction); higher = more cells survive
Settings: first compound 0.253 µM
Overview of recorded relative viability for various compounds
Please state the value as a number alone, without comment.

For orientation, consider the following solved cases.
Compound	Quantity	Value
O=c1cc(-c2cccc3c2Sc2ccccc2S3)oc(N2CCOCC2)c1 + C[C@@H](Oc1cc(-c2cnn(C3CCNCC3)c2)cnc1N)c1c(Cl)ccc(F)c1Cl [Crizotinib] (partner 1 µM)	relative viability	0.266
O=c1cc(-c2cccc3c2Sc2ccccc2S3)oc(N2CCOCC2)c1 + COc1cc2c(Oc3ccc(NC(=O)C4(C(=O)Nc5ccc(F)cc5)CC4)cc3F)ccnc2cc1OCCCN1CCOCC1 [Foretinib] (partner 0.25 µM)	relative viability	1.01
O=c1cc(-c2cccc3c2Sc2ccccc2S3)oc(N2CCOCC2)c1 + Nc1nc2[nH]cc(CCc3ccc(C(=O)N[C@@H](CCC(=O)O)C(=O)O)cc3)c2c(=O)[nH]1 [Pemetrexed] (partner 0.2 µM)	relative viability	0.197

Enquiry: Any idea what relative viability was measured for COc1nc(C)cnc1NS(=O)(=O)c1cccnc1-c1ccc(-c2nnco2)cc1 [Zibotentan] + CC1(C)CCC(c2ccc(Cl)cc2)=C(CN2CCN(c3ccc(C(=O)NS(=O)(=O)c4ccc(N[C@H](CCN5CCOCC5)CSc5ccccc5)c(S(=O)(=O)C(F)(F)F)c4)cc3)CC2)C1 [Navitoclax] (partner 0.5 µM) ?
Return: 1.01

Enquiry: State the recorded relative viability for this entry: COc1nc(C)cnc1NS(=O)(=O)c1cccnc1-c1ccc(-c2nnco2)cc1 [Zibotentan] + CC(C)C[C@H](NC(=O)[C@H](Cc1ccccc1)NC(=O)c1cnccn1)B(O)O [Bortezomib] (partner 0.002 µM)
Return: 0.979

Enquiry: For the compound shown here, O=c1cc(-c2cccc3c2Sc2ccccc2S3)oc(N2CCOCC2)c1 + CCNC(=O)c1noc(-c2cc(C(C)C)c(O)cc2O)c1-c1ccc(CN2CCOCC2)cc1 [Luminespib] (partner 0.01 µM) , give the reported relative viability.
Return: 0.102

Enquiry: Could you share which relative viability value was measured for COc1nc(C)cnc1NS(=O)(=O)c1cccnc1-c1ccc(-c2nnco2)cc1 [Zibotentan] + C[C@]1(O)C[C@@H](c2nc(-c3ccc4ccc(-c5ccccc5)nc4c3)c3c(N)nccn32)C1 [Linsitinib] (partner 1 µM) ?
Return: 0.972

Enquiry: Returns the measured relative viability for the input compound. Input: O=c1cc(-c2cccc3c2Sc2ccccc2S3)oc(N2CCOCC2)c1 + NC(=O)Nc1cc(-c2cccc(F)c2)sc1C(=O)N[C@H]1CCCNC1 [AZD7762] (partner 0.2 µM)
Return: 1.06

Enquiry: relative viability lookup needed for COc1nc(C)cnc1NS(=O)(=O)c1cccnc1-c1ccc(-c2nnco2)cc1 [Zibotentan] + CC(=O)c1c(C)c2cnc(Nc3ccc(N4CCNCC4)cn3)nc2n(C2CCCC2)c1=O [Palbociclib] (partner 0.5 µM) , thanks.
Return: 0.177

Enquiry: I have this compound here, O=c1cc(-c2cccc3c2Sc2ccccc2S3)oc(N2CCOCC2)c1 + Cc1cc(Nc2cc(N3CCN(C)CC3)nc(Sc3ccc(NC(=O)C4CC4)cc3)n2)n[nH]1 [Tozasertib] (partner 0.1 µM) , and I need its recorded relative viability.
Return: 0.404

###

// values below are reported relative viability
Test system: NCI-H3122
Assay: relative viability (nuclei count vs DMSO), 5 days (fraction); higher = more cells survive
Conditions: first compound 0.253 µM
Number, no unit, nothing else.

# annotated cases, reported relative viability shown
Compound	relative viability
O=c1cc(-c2cccc3c2Sc2ccccc2S3)oc(N2CCOCC2)c1 + Nc1ncn([C@H]2C[C@H](O)[C@@H](CO)O2)c(=O)n1 [Decitabine] (partner 2 µM)	0.551
COc1nc(C)cnc1NS(=O)(=O)c1cccnc1-c1ccc(-c2nnco2)cc1 [Zibotentan] + Cc1nc(Nc2ncc(C(=O)Nc3c(C)cccc3Cl)s2)cc(N2CCN(CCO)CC2)n1 [Dasatinib] (partner 0.075 µM)	0.817
COc1nc(C)cnc1NS(=O)(=O)c1cccnc1-c1ccc(-c2nnco2)cc1 [Zibotentan] + CCNC(=O)c1noc(-c2cc(C(C)C)c(O)cc2O)c1-c1ccc(CN2CCOCC2)cc1 [Luminespib] (partner 0.01 µM)	0.112

Please turn your attention to the following entry.
Enquiry: // returns reported relative viability for input O=c1cc(-c2cccc3c2Sc2ccccc2S3)oc(N2CCOCC2)c1 + COc1cccc2cc(-c3nc([C@H]4CC[C@H](C(=O)O)CC4)n4ncnc(N)c34)[nH]c12 [OSI-027] (partner 0.5 µM)
Return: 1.08
